Biological target: recombinant human integrin αvβ6 (Homo sapiens (Human), UniProt P06756+P18564)
Sequence (P06756 31-992): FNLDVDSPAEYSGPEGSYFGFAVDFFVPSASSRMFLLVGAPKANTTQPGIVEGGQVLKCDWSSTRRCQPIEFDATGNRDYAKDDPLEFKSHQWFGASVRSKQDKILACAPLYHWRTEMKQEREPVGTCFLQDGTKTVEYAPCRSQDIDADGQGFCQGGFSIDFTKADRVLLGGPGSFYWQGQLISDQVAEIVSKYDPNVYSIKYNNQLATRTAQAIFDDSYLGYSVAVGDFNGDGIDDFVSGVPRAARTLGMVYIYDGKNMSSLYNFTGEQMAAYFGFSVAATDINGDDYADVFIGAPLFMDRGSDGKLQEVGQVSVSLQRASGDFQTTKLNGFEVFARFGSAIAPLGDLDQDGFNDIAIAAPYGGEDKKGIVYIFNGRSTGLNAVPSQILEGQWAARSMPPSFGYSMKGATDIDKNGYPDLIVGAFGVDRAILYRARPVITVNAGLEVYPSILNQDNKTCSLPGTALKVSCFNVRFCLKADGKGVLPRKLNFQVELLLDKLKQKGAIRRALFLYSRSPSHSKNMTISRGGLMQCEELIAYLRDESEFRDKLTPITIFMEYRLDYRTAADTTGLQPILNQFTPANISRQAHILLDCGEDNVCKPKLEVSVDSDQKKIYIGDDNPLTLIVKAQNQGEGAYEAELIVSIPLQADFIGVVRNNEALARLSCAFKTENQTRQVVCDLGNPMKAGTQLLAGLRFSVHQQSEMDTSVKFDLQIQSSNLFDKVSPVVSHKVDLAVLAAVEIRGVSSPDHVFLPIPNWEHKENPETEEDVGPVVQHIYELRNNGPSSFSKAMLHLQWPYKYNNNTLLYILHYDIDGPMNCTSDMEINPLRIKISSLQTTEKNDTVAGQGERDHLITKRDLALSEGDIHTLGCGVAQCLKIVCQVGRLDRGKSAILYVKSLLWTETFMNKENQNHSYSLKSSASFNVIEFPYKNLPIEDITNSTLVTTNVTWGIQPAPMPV
Sequence (P18564 22-707): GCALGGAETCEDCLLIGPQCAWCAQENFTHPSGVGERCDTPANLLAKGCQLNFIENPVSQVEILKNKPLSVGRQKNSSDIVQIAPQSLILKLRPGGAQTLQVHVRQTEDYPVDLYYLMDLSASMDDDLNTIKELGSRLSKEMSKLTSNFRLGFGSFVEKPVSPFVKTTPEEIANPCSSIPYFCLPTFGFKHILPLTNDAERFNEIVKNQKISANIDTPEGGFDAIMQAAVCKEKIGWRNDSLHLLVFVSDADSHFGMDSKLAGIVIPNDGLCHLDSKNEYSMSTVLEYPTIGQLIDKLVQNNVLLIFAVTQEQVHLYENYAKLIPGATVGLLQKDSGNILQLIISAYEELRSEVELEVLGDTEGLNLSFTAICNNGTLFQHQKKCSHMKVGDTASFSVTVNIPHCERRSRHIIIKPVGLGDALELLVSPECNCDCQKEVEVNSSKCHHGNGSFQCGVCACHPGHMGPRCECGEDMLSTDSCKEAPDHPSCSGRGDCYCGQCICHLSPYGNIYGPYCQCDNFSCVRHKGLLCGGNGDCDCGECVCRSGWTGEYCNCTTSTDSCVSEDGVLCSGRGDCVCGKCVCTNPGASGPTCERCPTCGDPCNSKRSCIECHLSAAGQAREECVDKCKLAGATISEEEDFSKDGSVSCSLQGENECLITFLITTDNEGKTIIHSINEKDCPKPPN
Test: Solid phase integrin αvβ6 binding assay
Conditions: plate-coated integrin; recombinant TGFβ1 LAP 0.67 ug/ml as ligand; 2 hours at 25° C.; read-out: αvβ6 Inhibition IC50 (nM) - range
Recorded IC50 values for a group of molecules are listed next.

Sample records with IC50:
>  <molecule>
Cn1ncc2cccc(C(=O)N[C@@H](CCN3CC[C@@H](CCc4ccc5c(n4)NCCC5)C3)C(=O)O)c21 [Compound 28a]

>  <val>
< 50 nM

$$$$
>  <molecule>
CC(C)(C(=O)N[C@@H](CCN1CC(CCc2ccc3c(n2)NCCC3)C1)C(=O)O)c1ccccc1 [Compound 136]

>  <val>
> 1000 nM

$$$$
>  <molecule>
O=C(N[C@@H](CCN1C2CCC1C(CCc1ccc3c(n1)NCCC3)C2)C(=O)O)c1cc(F)cc(C(F)(F)F)c1 (stereo partly shown) [Compound 140]

>  <val>
> 1000 nM

$$$$
>  <molecule>
O=C(N[C@@H](CCN1CC[C@@H](CCc2ccc3c(n2)NCCC3)C1)C(=O)O)c1cccc(F)c1Cl [Compound 5a]

>  <val>
< 50 nM

$$$$
>  <molecule>
Cn1ncc2ccc(C(=O)N[C@@H](CCN3CCC[C@](F)(CCc4ccc5c(n4)NCCC5)C3)C(=O)O)cc21 [Compound 110]

>  <val>
< 50 nM

$$$$

The molecule listed as O=C(O)[C@H](CCN1CC(CCc2ccc3c(n2)NCCC3)C1)NC(=O)[C@@H]1CCNC1Cc1ccccc1 (stereo partly shown) [Compound 143] has a reported IC50 of > 1000 nM

For O=C(N[C@@H](CCN1CCC[C@](F)(CCc2ccc3c(n2)NCCC3)C1)C(=O)O)c1cc(F)cc(F)c1 [Compound 104] the molecule record lists IC50 as < 50 nM

====

Molecular target: recombinant human integrin αvβ6 (Homo sapiens (Human), UniProt P06756+P18564)
Assay: Solid phase integrin αvβ6 binding assay
Details: plate-coated integrin; recombinant TGFβ1 LAP 0.67 ug/ml as ligand; 2 hours at 25° C.; read-out: αvβ6 Inhibition IC50 (nM) - range
Recorded IC50 by entry

>  <molecule>
O=C(O)[C@H](CCN1CC[C@@H](CCc2ccc3c(n2)NCCC3)C1)NC(=O)[C@@H]1CCCN1c1ccccc1

>  <IC50>
< 50 nM

$$$$
>  <molecule>
O=C(N[C@@H](CCN1CC(OCCc2ccc3c(n2)NCCC3)C1)C(=O)O)[C@@H]1CCN(c2ccccn2)C1

>  <IC50>
50 to 250 nM

$$$$
>  <molecule>
O=C(N[C@@H](CCN1CCC[C@@](F)(CCc2ccc3c(n2)NCCC3)C1)C(=O)O)c1c(Cl)cccc1Cl

>  <IC50>
250 to 1000 nM

$$$$
>  <molecule>
CC(C)(C)OC(=O)N[C@@H](CCN1CC[C@@H](CCc2ccc3c(n2)NCCC3)C1)C(=O)O

>  <IC50>
< 50 nM

$$$$

# IC50 of O=C(O)[C@H](CCN1CC(OCCc2ccc3c(n2)NCCC3)C1)NC(=O)[C@@H]1CCCN1Cc1ccccc1 = < 50 nM

Entry CCC(CC)C(=O)N[C@@H](CCN1CCC[C@@](F)(CCc2ccc3c(n2)NCCC3)C1)C(=O)O ; IC50 = 50 to 250 nM

Record summary for Cn1ncc2cc(C(=O)N[C@@H](CCN3CC[C@@H](CCc4ccc5c(n4)NCCC5)C3)C(=O)O)ccc21 [Compound 25a] : reported IC50 = 50 to 250 nM

Note to self: IC50 recorded for O=C(N[C@H](CCN1CC[C@@H](CCc2ccc3c(n2)NCCC3)C1)C(=O)O)C1CCC(F)(F)CC1 [Compound 21c] was < 50 nM

# IC50 (molecule: Cc1cc(C)n(-c2cccc(C(=O)N[C@@H](CCN3CC(CCc4ccc5c(n4)NCCC5)CC(F)(F)C3)C(=O)O)c2)n1 (stereo partly drawn) ) is 250 to 1000 nM

Cn1nccc1C(=O)N[C@@H](CCN1CC[C@@H](CCc2ccc3c(n2)NCCC3)C1)C(=O)O yielded IC50 of < 50 nM

O=C(N[C@@H](CCN1CC[C@@H](CCc2ccc3c(n2)NCCC3)C1)C(=O)O)c1cccc(-c2cncs2)c1 has a reported IC50 of < 50 nM

Just so you know, measured IC50 for O=C(N[C@@H](CCN1C2CCC1C(CCc1ccc3c(n1)NCCC3)C2)C(=O)O)c1cc(F)cc(C(F)(F)F)c1 (stereo partly drawn) [Compound 141] came out at < 50 nM

Noted for O=C(O)[C@H](CCN1CC[C@@H](OCCc2ccc3c(n2)NCCC3)C1)NC(=O)[C@@H]1CCCN1Cc1ccccc1 : its IC50 reads 250 to 1000 nM

Recorded result, O=C(N[C@@H](CCN1CCC[C@@](F)(CCc2ccc3c(n2)NCCC3)C1)C(=O)O)c1ccccc1 , IC50: 50 to 250 nM

Sample CCCCC(=O)N1CCC[C@@H](C(=O)N[C@@H](CCN2CC[C@@H](CCc3ccc4c(n3)NCCC4)C2)C(=O)O)C1 ; IC50 observed: < 50 nM
